Origin of values: ChEMBL document CHEMBL2413014

- TARGET DESC: Coagulation factor XIII A chain (Homo sapiens)
- Sequence (P00488 whole entry): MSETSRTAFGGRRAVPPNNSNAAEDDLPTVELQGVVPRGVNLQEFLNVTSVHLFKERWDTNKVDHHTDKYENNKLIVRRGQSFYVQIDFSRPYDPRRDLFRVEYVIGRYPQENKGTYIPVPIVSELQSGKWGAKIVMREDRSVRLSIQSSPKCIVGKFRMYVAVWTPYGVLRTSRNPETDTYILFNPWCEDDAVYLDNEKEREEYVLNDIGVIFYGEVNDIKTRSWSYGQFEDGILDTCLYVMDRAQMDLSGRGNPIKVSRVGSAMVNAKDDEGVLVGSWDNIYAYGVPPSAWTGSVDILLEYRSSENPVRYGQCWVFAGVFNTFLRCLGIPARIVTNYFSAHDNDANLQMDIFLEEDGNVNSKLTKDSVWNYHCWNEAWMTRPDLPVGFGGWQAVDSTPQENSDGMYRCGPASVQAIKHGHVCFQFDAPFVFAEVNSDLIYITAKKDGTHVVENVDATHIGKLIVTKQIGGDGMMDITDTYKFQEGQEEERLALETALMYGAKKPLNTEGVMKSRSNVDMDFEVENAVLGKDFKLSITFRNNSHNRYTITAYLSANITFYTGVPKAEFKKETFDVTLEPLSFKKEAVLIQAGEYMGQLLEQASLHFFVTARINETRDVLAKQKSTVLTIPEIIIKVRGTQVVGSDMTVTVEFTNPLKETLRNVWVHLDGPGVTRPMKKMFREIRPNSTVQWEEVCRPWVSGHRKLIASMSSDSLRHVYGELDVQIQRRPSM
- ASSAY NAME: Inhibition of recombinant human F13a-mediated biotin X-cadaverine incorporation into N,N'-dimethylcasein after 1 hr
VALUE TYPE: IC50 (µM)

[A] CCCc1c(CCC)[n+](C)c(SCC(=O)CC[C@H](NC(=O)[C@H](Cc2ccccc2)NC(=O)OCc2ccccc2)C(=O)O)n1C
[B] CCCc1c(CCC)[n+](C)c(SCC(=O)CC[C@H](NC(=O)CNC(=O)OCc2ccccc2)C(=O)O)n1C
Asked: // compare: A vs B , metric IC50, want the smaller Indicate which entry you chose by stating its label.
Given back: A

----------
- TARGET DESC: Coagulation factor XIII A chain (Homo sapiens)
- ASSAY NAME: Inhibition of recombinant human F13a-mediated biotin X-cadaverine incorporation into N,N'-dimethylcasein after 1 hr
VALUE TYPE: IC50

Asked: Return reported IC50. Input compound: `Cc1c(C)[n+](C)c(SCC(=O)CC[C@H](NC(=O)[C@H](Cc2ccccc2)NC(=O)OCc2ccccc2)C(=O)O)n1Cc1ccccc1`
Given back: > 200 µM

Asked: Output measured IC50 for this item: `Cc1c(C)[n+](C)c(SCC(=O)CC[C@H](NC(=O)CNC(=O)OCc2ccccc2)C(=O)O)n1Cc1ccccc1`
Given back: > 200 µM

Asked: Specify reported IC50 for the compound shown: `C[S+](C)CC(=O)CC[C@H](NC(=O)CNC(=O)OCc1ccccc1)C(=O)O`
Given back: > 200 µM
